System: Streptococcus pneumoniae
Assay: MIC value was measured against streptococcus pneumoniae park1
Assay type: functional
Readings of MIC for the listed compounds
Measured metric: MIC (µg/mL)

Compound: CC[C@H]1OC(=O)[C@H](C)[C@@H](OC2CC(C)(OC)C(O)C(C)O2)[C@H](C)[C@@H](OC2OC(C)CC(N(C)C)C2O)[C@](C)(O)C[C@@H](C)[C@H]2[C@H](C)[C@@H](OCN2Cc2ccccc2)[C@]1(C)O (some centres undefined)
Target or test system: Streptococcus pneumoniae
Test result: 0.06
//
Compound: CC[C@H]1OC(=O)[C@H](C)[C@@H](OC2CC(C)(OC)C(O)C(C)O2)[C@H](C)[C@@H](OC2OC(C)CC(N(C)C)C2O)[C@](C)(O)C[C@@H](C)[C@H](NCc2ccccc2)[C@H](C)[C@@H](O)[C@]1(C)O (some centres undefined)
Target or test system: Streptococcus pneumoniae
Test result: 0.015
//
Compound: CC[C@H]1OC(=O)[C@H](C)[C@@H](OC2CC(C)(OC)C(O)C(C)O2)[C@H](C)[C@@H](OC2OC(C)CC(N(C)C)C2O)[C@](C)(O)C[C@@H](C)[C@H]2[C@H](C)[C@@H](OCN2C(C)CCCN(CC)CC)[C@]1(C)O (some centres undefined)
Target or test system: Streptococcus pneumoniae
Test result: 0.5
//
Compound: CC[C@H]1OC(=O)[C@H](C)[C@@H](OC2CC(C)(OC)C(O)C(C)O2)[C@H](C)[C@@H](OC2OC(C)CC(N(C)C)C2O)[C@](C)(O)C[C@@H](C)[C@H]2[C@H](C)[C@@H](OCN2C(C)C)[C@]1(C)O (some centres undefined)
Target or test system: Streptococcus pneumoniae
Test result: 0.06
